# SYSTEM_NAME: EGFR (T790M) (h) (Homo sapiens (Human), UniProt P00533, T790M)
# Sequence (P00533 25-1210 T790M): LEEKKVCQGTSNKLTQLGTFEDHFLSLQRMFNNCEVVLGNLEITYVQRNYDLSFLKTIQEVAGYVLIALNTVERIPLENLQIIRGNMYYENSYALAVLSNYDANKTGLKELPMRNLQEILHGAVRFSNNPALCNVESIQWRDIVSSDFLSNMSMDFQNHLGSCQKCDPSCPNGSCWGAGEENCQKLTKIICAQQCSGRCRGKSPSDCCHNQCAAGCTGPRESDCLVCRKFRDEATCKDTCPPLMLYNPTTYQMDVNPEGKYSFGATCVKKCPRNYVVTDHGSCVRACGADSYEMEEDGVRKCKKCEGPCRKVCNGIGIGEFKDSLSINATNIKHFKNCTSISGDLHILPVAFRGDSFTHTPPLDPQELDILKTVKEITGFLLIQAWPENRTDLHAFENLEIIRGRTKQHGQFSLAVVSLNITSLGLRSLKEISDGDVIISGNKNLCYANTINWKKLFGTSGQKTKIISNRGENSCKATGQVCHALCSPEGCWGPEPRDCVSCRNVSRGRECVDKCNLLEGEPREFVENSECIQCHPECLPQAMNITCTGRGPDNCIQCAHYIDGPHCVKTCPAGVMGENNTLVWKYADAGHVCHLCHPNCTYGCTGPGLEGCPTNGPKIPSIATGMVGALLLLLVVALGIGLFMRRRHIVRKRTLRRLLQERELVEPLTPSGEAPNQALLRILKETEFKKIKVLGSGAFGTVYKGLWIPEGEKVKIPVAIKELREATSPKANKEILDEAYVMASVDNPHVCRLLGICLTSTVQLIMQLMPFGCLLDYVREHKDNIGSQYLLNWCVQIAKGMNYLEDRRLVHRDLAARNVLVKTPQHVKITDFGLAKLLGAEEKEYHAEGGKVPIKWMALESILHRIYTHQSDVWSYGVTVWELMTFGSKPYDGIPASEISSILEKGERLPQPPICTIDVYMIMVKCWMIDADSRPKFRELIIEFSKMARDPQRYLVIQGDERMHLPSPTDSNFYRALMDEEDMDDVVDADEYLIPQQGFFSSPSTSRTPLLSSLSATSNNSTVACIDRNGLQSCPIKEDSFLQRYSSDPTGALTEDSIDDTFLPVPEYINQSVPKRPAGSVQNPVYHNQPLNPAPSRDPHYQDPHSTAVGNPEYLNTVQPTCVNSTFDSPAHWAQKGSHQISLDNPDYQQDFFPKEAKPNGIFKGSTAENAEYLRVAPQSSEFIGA
# ASSAY_PROTOCOL: Kinase assay, single dose inhibition (Millipore, 33P-ATP filter binding)
# Type: biochemical
# PROTOCOL_CONDITIONS: 0.1 μM test compound, 10 μM ATP; remaining activity relative to DMSO control = 100%
As shown below, each of these compounds has a reported Activity (control) % EGFR (T790M) (h) value.
TEST_READOUT: Activity (control) % EGFR (T790M) (h) (%)

[[record]]
compound = "C=CC(=O)Nc1ccc(N2CCN(C)CC2)c(Nc2ncc(Cl)c(Nc3ccccc3C(=O)C(=O)N(C)C)n2)c1 [Example 135]"
obs_value = 96

[[record]]
compound = "C=C(CN1CCCCC1)C(=O)Nc1cc(Nc2ncc(Cl)c(Nc3ccccc3C(=O)C(=O)N(C)C)n2)ccc1N1CCOCC1 [Example 129]"
obs_value = 24

[[record]]
compound = "C=CC(=O)Nc1cc(Nc2ncc(Cl)c(Nc3ccccc3C(=O)C(=O)NC)n2)ccc1OC [Example 64]"
obs_value = 79

[[record]]
compound = "COc1ccc(NC(=O)/C=C/CN2CCCCC2)cc1Nc1ncc(Cl)c(Nc2ccccc2C(=O)C(=O)N(C)C)n1 [Example 72]"
obs_value = 54


* * *

# SYSTEM_NAME: EGFR (T790M) (h) (Homo sapiens (Human), UniProt P00533, T790M)
# ASSAY_PROTOCOL: Kinase assay, single dose inhibition (Millipore, 33P-ATP filter binding)
# Assay type: biochemical
# PROTOCOL_CONDITIONS: 0.1 μM test compound, 10 μM ATP; remaining activity relative to DMSO control = 100%
TEST_READOUT: Activity (control) % EGFR (T790M) (h)

[[record]]
entry_smiles = "C=C(CN1CCOCC1)C(=O)Nc1cccc(Nc2ncc(Cl)c(Nc3ccccc3C(=O)C(=O)N(C)C)n2)c1"
test_readout = "Activity (control) % EGFR (T790M) (h)"
obs_value = "14%"

[[record]]
entry_smiles = "CN(C)C(=O)C(=O)c1ccccc1Nc1nc(Nc2ccc(F)c(NC(=O)CCN3CCOCC3)c2)ncc1Cl"
test_readout = "Activity (control) % EGFR (T790M) (h)"
obs_value = "84%"

[[record]]
entry_smiles = "COc1cc(N2CCC(N(C)C)CC2)ccc1Nc1ncc(Cl)c(Nc2ccccc2C(=O)C(N)=O)n1"
test_readout = "Activity (control) % EGFR (T790M) (h)"
obs_value = "4%"

[[record]]
entry_smiles = "COc1cc(Nc2ncc(Cl)c(Nc3ccccc3C(=O)C(=O)N(C)C)n2)ccc1N1CCC(N(C)C)CC1"
test_readout = "Activity (control) % EGFR (T790M) (h)"
obs_value = "18%"


* * *

# SYSTEM_NAME: EGFR (T790M, L858R) (h) (Homo sapiens (Human), UniProt P00533, L858R/T790M)
# Sequence (P00533 25-1210 T790M/L858R): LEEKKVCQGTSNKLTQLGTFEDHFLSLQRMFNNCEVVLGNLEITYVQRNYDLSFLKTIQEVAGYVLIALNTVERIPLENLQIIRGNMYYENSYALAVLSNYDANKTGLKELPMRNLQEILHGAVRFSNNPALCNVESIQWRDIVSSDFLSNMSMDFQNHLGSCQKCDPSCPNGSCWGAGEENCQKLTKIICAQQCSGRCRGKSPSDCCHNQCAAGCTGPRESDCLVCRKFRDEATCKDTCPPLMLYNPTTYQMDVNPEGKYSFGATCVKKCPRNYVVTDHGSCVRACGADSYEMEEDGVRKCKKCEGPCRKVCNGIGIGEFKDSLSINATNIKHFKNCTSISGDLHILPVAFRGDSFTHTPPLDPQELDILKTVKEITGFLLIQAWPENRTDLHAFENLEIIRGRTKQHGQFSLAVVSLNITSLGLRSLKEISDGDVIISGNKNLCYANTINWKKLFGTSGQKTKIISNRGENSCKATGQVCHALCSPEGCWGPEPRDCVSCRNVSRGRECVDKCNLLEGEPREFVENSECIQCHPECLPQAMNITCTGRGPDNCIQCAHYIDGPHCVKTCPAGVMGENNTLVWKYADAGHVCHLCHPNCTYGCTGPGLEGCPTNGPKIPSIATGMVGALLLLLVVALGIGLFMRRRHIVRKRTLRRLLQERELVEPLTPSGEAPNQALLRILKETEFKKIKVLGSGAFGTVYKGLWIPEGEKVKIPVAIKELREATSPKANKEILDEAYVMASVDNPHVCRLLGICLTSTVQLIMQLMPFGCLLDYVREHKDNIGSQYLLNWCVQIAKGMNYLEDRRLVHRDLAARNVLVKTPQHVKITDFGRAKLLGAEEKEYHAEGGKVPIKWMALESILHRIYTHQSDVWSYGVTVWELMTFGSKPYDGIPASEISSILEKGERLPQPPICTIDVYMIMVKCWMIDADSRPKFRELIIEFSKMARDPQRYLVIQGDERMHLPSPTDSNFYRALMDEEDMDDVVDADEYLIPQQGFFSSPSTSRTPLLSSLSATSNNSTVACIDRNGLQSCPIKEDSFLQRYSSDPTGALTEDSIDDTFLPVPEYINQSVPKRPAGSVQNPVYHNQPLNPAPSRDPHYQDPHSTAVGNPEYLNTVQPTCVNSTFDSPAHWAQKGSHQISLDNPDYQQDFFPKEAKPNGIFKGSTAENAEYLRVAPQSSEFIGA
# ASSAY_PROTOCOL: Kinase assay, single dose inhibition (Millipore, 33P-ATP filter binding)
# Assay type: biochemical
# PROTOCOL_CONDITIONS: 0.1 μM test compound, 10 μM ATP; remaining activity relative to DMSO control = 100%
// assign TRUE if Activity (control) % EGFR (T790M, L858R) (h) falls strictly below 7%, else FALSE (ties count as FALSE)

[[record]]
compound = "C=C(CN1CCCCC1)C(=O)Nc1cc(Nc2ncc(Cl)c(Nc3ccccc3C(=O)C(=O)N(C)C)n2)ccc1N1CCOCC1 [Example 129]"
label_class = "TRUE"

[[record]]
compound = "CN(C)C(=O)C(=O)c1ccccc1Nc1nc(Nc2ccc(F)c(NC(=O)CCN3CCOCC3)c2)ncc1Cl [Example 123]"
label_class = "FALSE"

[[record]]
compound = "C=CC(=O)Nc1cccc(Nc2ncc(Cl)c(Nc3ccccc3C(=O)C(=O)N(C)C)n2)c1 [Example 40]"
label_class = "FALSE"

[[record]]
compound = "C=CC(=O)Nc1cc(Nc2ncc(Cl)c(Nc3ccccc3C(=O)C(=O)NC)n2)ccc1OC [Example 64]"
label_class = "FALSE"

[[record]]
compound = "C=C(CN(C)C)C(=O)Nc1ccc(OC)c(Nc2ncc(Cl)c(Nc3ccccc3C(=O)C(=O)N(C)C)n2)c1 [Example 78]"
label_class = "TRUE"

